# Test system: β2AR-YFP fusion protein (Homo sapiens, UniProt P07550)
# Construct: host or cells: U2OS
# Sequence (P07550 whole entry, the tested form may be a part): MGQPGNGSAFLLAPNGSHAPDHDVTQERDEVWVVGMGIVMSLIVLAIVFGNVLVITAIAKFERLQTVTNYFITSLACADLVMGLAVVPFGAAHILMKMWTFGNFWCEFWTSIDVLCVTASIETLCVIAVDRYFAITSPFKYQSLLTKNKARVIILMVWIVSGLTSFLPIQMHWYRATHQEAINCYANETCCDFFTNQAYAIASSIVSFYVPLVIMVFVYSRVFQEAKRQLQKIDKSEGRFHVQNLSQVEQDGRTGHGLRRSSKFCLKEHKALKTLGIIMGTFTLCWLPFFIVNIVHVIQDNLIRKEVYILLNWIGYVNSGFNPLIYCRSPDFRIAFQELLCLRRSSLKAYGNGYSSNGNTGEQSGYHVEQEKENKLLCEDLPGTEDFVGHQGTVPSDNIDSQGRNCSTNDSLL
# Method notes: Confocal imaging of living U2OS cells expressing β2AR-YFP (staining, internalization, competitive displacement, no-wash)
# Format: cell-based
# Condition info: U2OS cells expressing β2AR-YFP; 610CP ligands at 1.9 µM (19) and 2.5 µM (16)
Quantity kind: Staining performance

Worked examples follow.
Note down Staining performance recorded for Cc1c(CCC(=O)NCCOCCOCCNC(=O)CCCCCNC(=O)COc2ccc(/C=C/C3=[N+]4C(=Cc5ccc(-c6cccs6)n5[B-]4(F)F)C=C3)cc2)cccc1CC(C)(C)NCC(O)c1ccc(O)c2c1OCC(=O)N2 (centres unmarked) Strong

State its Staining performance for this molecule: Cc1c(CCC(=O)NCCOCCOCCNC(=O)CCN(C)C(=O)c2c(F)c(F)c(F)c(F)c2C2=c3cc4c5c(c3Oc3c2cc2c6c3CCCN6C(C)(C)C=C2CS(=O)(=O)O)CCC[N+]=5C(C)(C)C=C4CS(=O)(=O)[O-])cccc1CC(C)(C)NCC(O)c1ccc(O)c2c1OCC(=O)N2 (centres unmarked) Strong

Return reported Staining performance. Input molecule: CC(C)(CCNC(=O)CCOCCOCCNC(=O)COc1ccc(/C=C/C2=[N+]3C(=Cc4ccc(-c5cccs5)n4[B-]3(F)F)C=C2)cc1)NC[C@H](O)COc1cccc2[nH]c3ccccc3c12 [ab118171, reference compound] Strong

Item Cc1c(CCC(=O)NCCOCCOCCNC(=O)c2ccc(C(=O)[O-])c(C3=C4C=CC(=[N+](C)C)C=C4C(C)(C)c4cc(N(C)C)ccc43)c2)cccc1CC(C)(C)NCC(O)c1ccc(O)c2c1OCC(=O)N2 (centres unmarked) [BI-PEG-610CP (19)] : provide Staining performance None

More entries:
Report Staining performance, nothing else, for this molecule: CN(CCC(=O)NCCOCCOCCOCCOCCC(=O)NCCC(C)(C)NCC(O)COc1cccc2[nH]c3ccccc3c12)C(=O)c1c(F)c(F)c(F)c(F)c1C1=c2cc3c4c(c2Oc2c1cc1c5c2CCCN5C(C)(C)C=C1CS(=O)(=O)O)CCC[N+]=4C(C)(C)C=C3CS(=O)(=O)[O-] (centres unmarked) Strong
